Origin of values: PubChem BioAssay (NCI)

Test system: UO-31 renal
method notes: NCI tumour cell line growth inhibition, 48 h
readout label: GI50

| compound | GI50 |
| --- | --- |
| O=C1CC(=O)N(C(=O)c2nn(-c3ccc(Cl)cc3)cc2O)N1 | 529 nM |
| Cc1ccc(Cc2cnc(NC(=O)/C=C/c3cccc(C)c3)s2)cc1 | 395 nM |

Request: Return reported GI50 for target or system UO-31 renal, item Cc1cc(O)cc2c1[C@]1(C)CCC3C(C)(C)CCC[C@]3(C)[C@H]1C2 (stereo not given in full) .
Result: 20500 nM

Request: With UO-31 renal as the test system, provide measured GI50 for this compound: CCCN(CCC)c1ccc(/C=C/c2ccc3cc(OCC)ccc3n2)cc1
Result: > 100000 nM

Request: // output GI50; input CC(=Nc1ccccc1)C1=C(O)C(Cc2ccc(O)cc2)NC1=O (stereo not given) ; system UO-31 renal
Result: 321 nM
